- Target Or System: M1 muscarinic receptor (Homo sapiens, UniProt P11229)
- Construct: expressed in transfected cells
- Sequence (P11229 1-460): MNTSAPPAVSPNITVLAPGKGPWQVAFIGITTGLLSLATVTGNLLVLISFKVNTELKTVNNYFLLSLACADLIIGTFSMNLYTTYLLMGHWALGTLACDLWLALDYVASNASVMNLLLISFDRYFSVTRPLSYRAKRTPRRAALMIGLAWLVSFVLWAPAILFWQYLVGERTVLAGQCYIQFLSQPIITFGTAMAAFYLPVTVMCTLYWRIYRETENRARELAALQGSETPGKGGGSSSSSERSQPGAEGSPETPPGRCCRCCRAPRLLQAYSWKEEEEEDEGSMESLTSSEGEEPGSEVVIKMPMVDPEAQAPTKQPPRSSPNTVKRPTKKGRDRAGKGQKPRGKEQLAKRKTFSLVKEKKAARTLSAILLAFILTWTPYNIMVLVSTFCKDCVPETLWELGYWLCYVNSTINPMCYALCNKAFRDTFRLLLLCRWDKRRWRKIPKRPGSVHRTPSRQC
- Protocol Description: Receptor Selection and Amplification (R-SAT) assay, cloned M1 receptor
- Type: cell-based
- Experimental Parameters: R-SAT, second table (COMPOUND ID series); read-out: M1 pEC50 (converted)
Measurement Name: EC50 (µM)

Recorded EC50, per entry:
Compound: O=C1COc2cc(F)ccc2N1CCCN1CCC(OCC2CC2)CC1
Target Or System: M1 muscarinic receptor (Homo sapiens, UniProt P11229)
Obs Value: 0.0631
--
Compound: CCc1cccc2c1OCC(=O)N2CC(C)CN1CCC(OCC2CC2)CC1 (racemic)
Target Or System: M1 muscarinic receptor (Homo sapiens, UniProt P11229)
Obs Value: 0.0794

1. O=C1COc2ccc(F)cc2N1CCCN1CCC(OCC2CC2)CC1
2. O=C1COc2ccc(F)c(F)c2N1CCCN1CCC(OCC2CC2)CC1
# input EC50 comparison. Which is larger, 1 or 2 ? Write down the label attached to your selection.
# output 2
(2: 0.631 µM, 1: 0.0631 µM)

1. COC(CN1CCC(OCC2CC2)CC1)CN1C(=O)COc2cc(F)ccc21 (racemic)
2. CC(CN1CCC(OCC2CCC2)CC1)CN1C(=O)COc2ccccc21 (racemic)
# input Compare EC50: is it lower for 1 or for 2 ? Write down the label attached to your selection.
# output 1

* * *

- Target Or System: M1 muscarinic receptor (Homo sapiens, UniProt P11229)
- Construct: expressed in transfected cells
- Protocol Description: Receptor Selection and Amplification (R-SAT) assay, cloned M1 receptor
- Assay type: cell-based
- Set-up: scale not given here
- Experimental Parameters: R-SAT, second table (COMPOUND ID series)
Measurement Name: M1 Eff

Molecule: O=C1COc2cc(F)ccc2N1CCCN1CCC(OCC2CC2)CC1
Obs Value: 98

Molecule: CCOCCC1CC2CCC(C1)N2CC(C)CN1C(=O)COc2ccccc21 (single isomer, unassigned) [Compound 00262998]
Obs Value: 102

Molecule: CCON=C1CC2CCC(C1)N2C[C@@H](C)CN1C(=O)COc2ccccc21 (single isomer, unassigned) [Compound 00261435]
Obs Value: 121

Molecule: O=C1COc2cc(F)ccc2N1CCCN1[C@@H]2CC[C@H]1C[C@@H](OCC1CC1)C2
Obs Value: 81

Molecule: COCC[C@H]1C[C@H]2CC[C@@H](C1)N2C[C@H](C)CN1C(=O)COc2ccccc21
Obs Value: 97

I. O=C1COc2ccc(F)cc2N1CCCN1CCC(OCC2CC2)CC1
II. CC(CN1CCC(OCC2CC2)CC1)CN1C(=O)COc2ccccc21 (racemic)
# input Compare M1 Eff: is it lower for I or for II ? Write down the label attached to your selection.
# output I

A. O=C1COc2ccccc2N1CCCN1CCC(OCC2CC2)CC1
B. CC(CN1CCC(OC(=O)OCC2CCC2)CC1)CN1C(=O)COc2ccccc21 (racemic)
# input M1 Eff comparison. Which is larger, A or B ? Write down the label attached to your selection.
# output A
(A: 84, B: 48)

* * *

- Target Or System: M1 muscarinic receptor (Homo sapiens, UniProt P11229)
- Construct: expressed in transfected cells
- Sequence (P11229 1-460): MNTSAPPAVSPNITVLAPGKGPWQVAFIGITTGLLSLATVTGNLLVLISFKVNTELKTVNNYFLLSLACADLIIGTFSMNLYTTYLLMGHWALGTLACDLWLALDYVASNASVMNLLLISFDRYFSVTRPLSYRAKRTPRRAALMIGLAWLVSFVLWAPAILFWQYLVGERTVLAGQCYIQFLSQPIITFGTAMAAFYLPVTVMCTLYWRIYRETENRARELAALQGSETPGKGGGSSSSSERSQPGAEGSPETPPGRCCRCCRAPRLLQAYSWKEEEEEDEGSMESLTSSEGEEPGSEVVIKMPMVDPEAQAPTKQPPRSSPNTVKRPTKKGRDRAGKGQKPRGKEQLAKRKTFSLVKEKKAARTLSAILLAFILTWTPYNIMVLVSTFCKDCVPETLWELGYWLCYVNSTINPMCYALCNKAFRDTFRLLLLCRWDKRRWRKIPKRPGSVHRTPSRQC
- Protocol Description: Receptor Selection and Amplification (R-SAT) assay, cloned M1 receptor
- Type: cell-based
- Parameters: scale not given here
- Experimental Parameters: R-SAT, second table (COMPOUND ID series)
- Description: The EC50 for an agonist is intended to denote the concentration of a compound needed to achieve 50% of a maximal response seen in an in vitro assay such as R-SAT. For inverse agonists, EC50 is intended to denote the concentration of a compound needed to achieve 50% inhibition of an R-SAT response from basal, no compound, levels. […]
Measurement Name: M1 Eff
Could you keep your reply to the number by itself?

Recorded M1 Eff, per entry:
Compound: O=C1COc2cc(F)cc(F)c2N1CCCN1CCC(OCC2CC2)CC1 [Compound 00262471]
M1 Eff: 86
//
Compound: CCOCC[C@@H]1C[C@H]2CC[C@@H](C1)N2C[C@H](C)CN1C(=O)COc2ccccc21 [Compound 00263034]
M1 Eff: 68

Next item in the queue.
# compound O=C1COc2cc(F)c(F)cc2N1CCCN1[C@@H]2CC[C@H]1C[C@@H](OCC1CC1)C2 [Compound 00262569] ; its M1 Eff = 97
